Please provide measured pIC50 for the entries that follow.
target: ALK (Homo sapiens); construct: using the recombinant kinase domain of the ALK in analogy to the VEGF-R kinase assay; experiment: ALK tyrosine kinase inhibition (GST-ALK filter binding assay); conditions: read-out: IC50 Range Class, inhibition of ALK
Sequence (Q9UM73 1116-1392 limits assumed): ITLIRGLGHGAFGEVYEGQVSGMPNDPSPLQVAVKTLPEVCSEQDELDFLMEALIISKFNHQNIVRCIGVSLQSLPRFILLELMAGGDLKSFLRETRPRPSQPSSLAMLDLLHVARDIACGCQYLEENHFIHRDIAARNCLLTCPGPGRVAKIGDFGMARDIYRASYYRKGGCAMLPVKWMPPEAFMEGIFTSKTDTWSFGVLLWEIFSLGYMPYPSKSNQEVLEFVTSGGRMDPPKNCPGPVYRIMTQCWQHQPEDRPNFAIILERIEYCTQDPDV
pIC50: −log10 of the molar value.

NCCc1ccc(-n2cnc3cnc4ccc(-c5ccc6[nH]ccc6c5)cc4c32)c(Cl)c1; ≥ 6.30

# input for lookup
-- ask What measured pIC50 goes with "NCCCc1ccc(-n2cnc3cnc4ccc(-c5ccc6[nH]ccc6c5)cc4c32)c(Cl)c1" ?
-- reply ≥ 6.30

* * *

target: RET (Homo sapiens, UniProt P07949); construct: fused on or other part: N-terminal GST tag (from vector pFB-GSTX3); experiment: RET kinase inhibition (33P filter assay, GST-wtRET or GST-RET-Men2B); format: biochemical; conditions: read-out: IC50 Range Class, inhibition of RET
Sequence (P07949 1-1072 isoform P07949-2): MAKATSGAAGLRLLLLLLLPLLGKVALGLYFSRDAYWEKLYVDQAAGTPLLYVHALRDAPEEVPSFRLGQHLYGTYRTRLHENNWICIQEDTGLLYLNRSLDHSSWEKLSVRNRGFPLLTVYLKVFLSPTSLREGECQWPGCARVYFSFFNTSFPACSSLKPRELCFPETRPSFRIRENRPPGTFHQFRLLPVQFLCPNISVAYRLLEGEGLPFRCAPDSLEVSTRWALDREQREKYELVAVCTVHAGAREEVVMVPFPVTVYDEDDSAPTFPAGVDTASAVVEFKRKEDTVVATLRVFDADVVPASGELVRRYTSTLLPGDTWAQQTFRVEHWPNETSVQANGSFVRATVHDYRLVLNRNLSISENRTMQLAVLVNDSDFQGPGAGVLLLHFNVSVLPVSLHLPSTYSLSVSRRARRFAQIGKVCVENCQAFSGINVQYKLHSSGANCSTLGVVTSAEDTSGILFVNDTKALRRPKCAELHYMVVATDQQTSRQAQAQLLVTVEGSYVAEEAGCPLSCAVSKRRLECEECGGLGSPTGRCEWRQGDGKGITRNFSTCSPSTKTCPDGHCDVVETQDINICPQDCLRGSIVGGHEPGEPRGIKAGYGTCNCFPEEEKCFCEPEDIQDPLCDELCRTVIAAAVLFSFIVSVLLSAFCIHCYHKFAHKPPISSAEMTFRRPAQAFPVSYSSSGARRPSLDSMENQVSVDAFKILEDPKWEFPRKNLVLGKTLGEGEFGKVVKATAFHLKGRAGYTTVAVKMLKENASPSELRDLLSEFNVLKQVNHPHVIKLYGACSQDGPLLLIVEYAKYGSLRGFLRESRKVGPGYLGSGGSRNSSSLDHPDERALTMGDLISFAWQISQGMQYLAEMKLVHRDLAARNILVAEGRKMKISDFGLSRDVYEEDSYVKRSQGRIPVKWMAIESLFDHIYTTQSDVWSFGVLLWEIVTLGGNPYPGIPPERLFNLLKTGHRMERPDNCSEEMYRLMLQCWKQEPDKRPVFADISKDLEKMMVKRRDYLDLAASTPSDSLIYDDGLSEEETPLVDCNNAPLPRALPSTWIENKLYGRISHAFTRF
I'd appreciate it if you could supply IC50 values for the items below.

CN(C)Cc1cccc(-c2ccc3ncc4ncn(-c5ccccc5F)c4c3c2)c1; ≤ 500 nM

-- ask Item "c1ccc(-n2cnc3cnc4ccc(-c5cccc(N6CCNCC6)c5)cc4c32)cc1" with RET (Homo sapiens, UniProt P07949) - IC50?
-- reply 500 to 1000 nM
